Entries and their polymerase ribozyme fitness (log ratio)
B1: TPR t1 (parent)
chain: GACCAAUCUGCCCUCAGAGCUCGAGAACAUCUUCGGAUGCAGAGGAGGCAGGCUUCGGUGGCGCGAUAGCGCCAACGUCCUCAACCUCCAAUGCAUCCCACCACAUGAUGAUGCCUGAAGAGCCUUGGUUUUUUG

Variants of: B1
Test: polymerase ribozyme fitness, log enrichment relative to wild type (log ratio); higher = more active; in vitro selection for triplet polymerase activity
Lab note: write the figure by itself, no unit.

Solved entries (count: 8):
mutant.designation | polymerase ribozyme fitness (log ratio)
C8U C15A G69A C73A C102U C123A | -5.63
C3A U7C G113C | -2.78
G61U C102G G120C | -6.46
C62U C98G | -5.88
C11G C40A G48U C70U | -1.6
C22U A26G G52C A105C C124U | -4.45
A6U C124U | 1.56
C12A C15A C70A C72A G110U | -6.17

Query: What value of measured polymerase ribozyme fitness (log ratio) is listed for C11U G45A G48A ?
Reply: -2.77

Query: What value of measured polymerase ribozyme fitness (log ratio) is listed for C34A G63C A100C C104A ?
Reply: -6.04

Query: What value of measured polymerase ribozyme fitness (log ratio) is listed for C64A U112G ?
Reply: -6.64

Query: What value of measured polymerase ribozyme fitness (log ratio) is listed for G39U G47U ?
Reply: -2.97

Query: What value of measured polymerase ribozyme fitness (log ratio) is listed for A18C C20A U54A U96A ?
Reply: -3.05

Query: What value of measured polymerase ribozyme fitness (log ratio) is listed for C3A C11U C99U ?
Reply: -4.11

Query: What value of measured polymerase ribozyme fitness (log ratio) is listed for C49U U106A C114U ?
Reply: -4.43

Query: What value of measured polymerase ribozyme fitness (log ratio) is listed for C13U A46C ?
Reply: 0.0656

Query: What value of measured polymerase ribozyme fitness (log ratio) is listed for G17U G117C ?
Reply: -5.24

Query: What value of measured polymerase ribozyme fitness (log ratio) is listed for C56G G122A ?
Reply: -1.46

Query: What value of measured polymerase ribozyme fitness (log ratio) is listed for A41C A46G U109A ?
Reply: -7.53

Query: What value of measured polymerase ribozyme fitness (log ratio) is listed for G44A A68G U112A ?
Reply: -3.21
